- SYSTEM_NAME: hLTBP1-proTGFβ1 in the cell-based potency assay (human, UniProt P01137 30-390; Q14766 347-1721)
- Sequence (P01137 30-390 limits assumed, chain 1 of 2): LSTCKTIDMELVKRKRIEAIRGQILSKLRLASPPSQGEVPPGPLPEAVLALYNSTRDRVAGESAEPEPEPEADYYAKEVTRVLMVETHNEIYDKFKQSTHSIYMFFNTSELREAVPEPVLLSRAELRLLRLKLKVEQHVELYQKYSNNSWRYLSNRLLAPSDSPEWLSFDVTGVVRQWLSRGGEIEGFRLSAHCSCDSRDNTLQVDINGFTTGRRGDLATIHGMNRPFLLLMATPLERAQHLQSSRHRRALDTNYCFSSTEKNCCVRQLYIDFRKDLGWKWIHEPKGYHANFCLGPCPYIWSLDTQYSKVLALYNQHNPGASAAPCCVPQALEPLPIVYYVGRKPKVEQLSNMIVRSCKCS
- Sequence (Q14766 347-1721 limits assumed, chain 2 of 2): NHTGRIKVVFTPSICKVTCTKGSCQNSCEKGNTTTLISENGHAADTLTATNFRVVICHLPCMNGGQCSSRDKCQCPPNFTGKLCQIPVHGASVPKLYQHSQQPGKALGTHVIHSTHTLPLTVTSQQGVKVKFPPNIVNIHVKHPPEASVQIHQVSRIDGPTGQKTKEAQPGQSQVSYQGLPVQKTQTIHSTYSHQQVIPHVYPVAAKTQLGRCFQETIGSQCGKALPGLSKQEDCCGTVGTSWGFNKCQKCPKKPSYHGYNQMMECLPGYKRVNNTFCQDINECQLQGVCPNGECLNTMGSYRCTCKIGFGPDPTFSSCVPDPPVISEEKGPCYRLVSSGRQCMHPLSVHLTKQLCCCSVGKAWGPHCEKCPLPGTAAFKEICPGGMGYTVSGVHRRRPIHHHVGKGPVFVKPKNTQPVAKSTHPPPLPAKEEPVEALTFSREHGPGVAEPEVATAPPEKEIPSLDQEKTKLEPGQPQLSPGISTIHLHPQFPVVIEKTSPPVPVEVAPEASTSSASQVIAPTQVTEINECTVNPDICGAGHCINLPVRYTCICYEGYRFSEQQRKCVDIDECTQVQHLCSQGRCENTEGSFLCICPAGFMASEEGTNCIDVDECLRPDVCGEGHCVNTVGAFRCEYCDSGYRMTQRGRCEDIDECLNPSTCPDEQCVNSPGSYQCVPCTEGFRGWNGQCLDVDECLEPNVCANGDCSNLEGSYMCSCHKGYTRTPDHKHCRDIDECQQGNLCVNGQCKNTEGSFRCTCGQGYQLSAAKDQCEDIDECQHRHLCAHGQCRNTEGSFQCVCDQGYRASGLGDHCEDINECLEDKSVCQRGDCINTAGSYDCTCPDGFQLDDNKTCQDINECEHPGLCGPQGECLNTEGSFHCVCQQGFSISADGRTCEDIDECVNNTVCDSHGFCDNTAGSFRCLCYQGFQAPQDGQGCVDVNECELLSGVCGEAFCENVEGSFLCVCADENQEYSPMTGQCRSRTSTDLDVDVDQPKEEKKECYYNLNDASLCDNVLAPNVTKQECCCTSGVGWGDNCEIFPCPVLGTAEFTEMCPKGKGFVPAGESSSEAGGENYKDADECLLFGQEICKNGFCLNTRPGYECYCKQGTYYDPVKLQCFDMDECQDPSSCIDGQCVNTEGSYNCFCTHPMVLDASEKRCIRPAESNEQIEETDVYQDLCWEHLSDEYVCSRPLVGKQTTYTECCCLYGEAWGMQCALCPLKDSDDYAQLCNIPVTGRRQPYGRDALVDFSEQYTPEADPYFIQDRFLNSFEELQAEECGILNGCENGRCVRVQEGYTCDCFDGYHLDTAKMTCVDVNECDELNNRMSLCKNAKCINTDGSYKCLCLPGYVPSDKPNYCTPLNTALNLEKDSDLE
- ASSAY_DETAILS: cell-based or functional assay
Decide using IC50, reporter cell assay of TGFβ1 activation alone. Strictly below 2 nM: true (1). Equal to or above 2 nM: false (0).

Query block: Please indicate whether the reported IC50, reporter cell assay of TGFβ1 activation of Ab4 (antibody, V domains shown) VH: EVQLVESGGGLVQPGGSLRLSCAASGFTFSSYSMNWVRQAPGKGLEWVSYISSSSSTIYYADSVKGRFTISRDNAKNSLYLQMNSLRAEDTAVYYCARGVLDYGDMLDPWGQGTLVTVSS VL: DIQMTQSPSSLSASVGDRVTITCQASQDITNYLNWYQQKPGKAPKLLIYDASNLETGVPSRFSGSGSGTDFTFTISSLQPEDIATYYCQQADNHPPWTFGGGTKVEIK is strictly below 2 nM.
Result block: false (0)

Query block: Does the reported IC50, reporter cell assay of TGFβ1 activation of Ab25 (antibody, V domains shown) VH: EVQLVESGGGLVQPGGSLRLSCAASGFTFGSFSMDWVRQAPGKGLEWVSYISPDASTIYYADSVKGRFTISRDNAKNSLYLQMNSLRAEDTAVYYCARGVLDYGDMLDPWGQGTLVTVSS VL: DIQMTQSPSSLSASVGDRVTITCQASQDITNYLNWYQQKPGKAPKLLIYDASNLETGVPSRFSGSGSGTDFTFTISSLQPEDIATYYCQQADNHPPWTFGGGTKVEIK stay below 2 nM?
Result block: false (0)

Continuing:
Query block: Take the binder Ab33 (antibody, V domains shown) VH: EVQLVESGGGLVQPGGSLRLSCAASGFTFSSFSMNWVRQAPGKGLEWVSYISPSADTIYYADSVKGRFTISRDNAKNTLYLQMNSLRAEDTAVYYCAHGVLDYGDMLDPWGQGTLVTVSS VL: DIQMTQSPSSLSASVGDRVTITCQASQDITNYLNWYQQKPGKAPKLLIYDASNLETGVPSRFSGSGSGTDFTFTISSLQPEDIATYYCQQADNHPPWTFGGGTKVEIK and say whether its IC50, reporter cell assay of TGFβ1 activation is less than 2 nM.
Result block: true (1)

Query block: Is it true that IC50, reporter cell assay of TGFβ1 activation reported for Ab29 (antibody, V domains shown) VH: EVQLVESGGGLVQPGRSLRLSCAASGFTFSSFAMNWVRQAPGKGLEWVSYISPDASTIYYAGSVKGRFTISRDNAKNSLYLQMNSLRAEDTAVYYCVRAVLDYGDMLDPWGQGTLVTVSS VL: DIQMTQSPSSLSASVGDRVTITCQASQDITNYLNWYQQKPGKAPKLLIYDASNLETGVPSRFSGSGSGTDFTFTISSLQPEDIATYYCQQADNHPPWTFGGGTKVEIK is less than 2 nM?
Result block: true (1)

Query block: For Ab26 (antibody, V domains shown) VH: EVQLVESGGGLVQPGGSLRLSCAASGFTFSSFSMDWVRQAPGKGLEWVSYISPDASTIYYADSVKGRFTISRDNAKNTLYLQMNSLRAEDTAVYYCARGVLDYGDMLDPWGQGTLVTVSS VL: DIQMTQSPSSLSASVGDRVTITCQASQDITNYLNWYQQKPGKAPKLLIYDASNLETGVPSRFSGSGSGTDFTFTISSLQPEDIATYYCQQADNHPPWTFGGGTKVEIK , is the recorded IC50, reporter cell assay of TGFβ1 activation below the cut-off of 2 nM?
Result block: true (1)
